FYI, the data here is from patent US20020137929A1.

Examples of compounds with documented ECHCG rating follow.
# System: ECHCG (Barnyardgrass)
# METHOD_DESCRIPTION: Preemergence herbicidal evaluation
# Format: in vivo, Echinochloa crus-galli
# PARTICULARS: preemergence, 0.2500 kg/ha, rated 4-5 weeks after treatment, 0-9 scale
Could you respond with only the numeric value?

A selection of reference data follows.
COC(=O)CC1SC(=Nc2cc(-n3c(=O)cc(C(F)(F)F)n(C)c3=O)c(F)cc2Cl)N(C)C1=O (stereo not shown) [Compound 88] : 2.0
CN1C(=O)C(CC(N)=O)SC1=Nc1cc(-n2c(=O)cc(C(F)(F)F)n(C)c2=O)c(F)cc1Cl (stereo not shown) [Compound 92] : 0.0

## Input Which ECHCG rating value is on record for CCOC(=O)CN1C(=O)C(CC(=O)OC(C)C(=O)OCC)S/C1=N/c1cc(-n2c(=O)cc(C(F)(F)F)n(C)c2=O)c(F)cc1Cl (stereo not shown) [Compound 87] ?
## Output 0.0

## Input Could you do the same for COC(=O)C1(N2C(=O)CSC2=Nc2cc(-n3c(=O)cc(C(F)(F)F)n(C)c3=O)c(F)cc2Cl)CCCCC1 [Compound 81] , please?
## Output 1.0

###

# Tested on: SETVI (Foxtail, Green)
# METHOD_DESCRIPTION: Preemergence herbicidal evaluation
# Format: in vivo, Setaria viridis
# PARTICULARS: rate 0.0625 kg/ha; rated 4-5 weeks after treatment
OBSERVATION_TYPE: SETVI preemergence herbicidal rating

Solved entries (count: 4):
CCOC(=O)CN1C(=O)C(CC)SC1=Nc1cc(-n2c(=O)cc(C(F)(F)F)n(C)c2=O)c(F)cc1Cl (centres unmarked) : 9.0
COC(=O)CN1C(=O)CSC1=Nc1cc(-n2c(=O)cc(C(F)(F)F)n(C)c2=O)c(F)cc1Cl : 2.3
CCOC(=O)CN1C(=O)C(F)SC1=Nc1cc(-n2c(=O)cc(C(F)(F)F)n(C)c2=O)c(F)cc1Cl (centres unmarked) : 7.0
O=C1CSC(=Nc2cc(N3C(=O)C4=C(CCCC4)C3=O)c(F)cc2Cl)N1c1ccccc1 : 4.0

## Input Please state recorded SETVI preemergence herbicidal rating (tested on SETVI (Foxtail, Green)) of CN1C(=O)CSC1=Nc1cc(N2C(=O)C3=C(CCCC3)C2=O)c(F)cc1Cl
## Output 9.0

###

# Test system: ABUTH (Velvetleaf)
# METHOD_DESCRIPTION: Postemergence herbicidal evaluation
# Assay type: in vivo, Abutilon theophrasti
# PARTICULARS: postemergence, rate 0.0156 kg/ha
OBSERVATION_TYPE: herbicidal rating ABUTH

// known answers, use as guide
CCOC(=O)CN1C(=O)C(SC)SC1=Nc1cc(-n2c(=O)cc(C(F)(F)F)n(C)c2=O)c(F)cc1Cl (stereo not shown) [Compound 125] : 9.0
Cn1c(C(F)(F)F)cc(=O)n(-c2cc(N=C3SCC(=O)N3Cc3ccco3)c(Cl)cc2F)c1=O [Compound 122] : 9.0
CN1C(=O)C(CC(=O)NO)SC1=Nc1cc(-n2c(=O)cc(C(F)(F)F)n(C)c2=O)c(F)cc1Cl (stereo not shown) [Compound 162] : 9.0
Cn1c(C(F)(F)F)cc(=O)n(-c2cc(N=C3SCC(=O)N3CC(F)(F)F)c(Cl)cc2F)c1=O [Compound 163] : 9.0
CCOC(=O)CN1C(=O)C(CC(=O)NS(=O)(=O)CC)SC1=Nc1cc(-n2c(=O)cc(C(F)(F)F)n(C)c2=O)c(F)cc1Cl (stereo not shown) [Compound 103] : 9.0

## Input Requested field: herbicidal rating ABUTH. Item: Cn1c(C(F)(F)F)cc(=O)n(-c2cc(N=C3SCC(=O)N3Cc3ccc(Cl)cc3)c(Cl)cc2F)c1=O [Compound 145]
## Output 9.0

## Input Now this one: COc1ccc(CN2C(=O)CSC2=Nc2cc(-n3c(=O)cc(C(F)(F)F)n(C)c3=O)c(F)cc2Cl)c(OC)c1 [Compound 139]
## Output 9.0
